- Test system: PCA (homologous passive cutaneous anaphylaxis) in rat
- ASSAY_COMMENT: Inhibitory activity against PCA in rat
- Type: in vivo, rat (male Slc: Wistar)
- DETAILS: Rattus norvegicus; 5 mg/kg oral, 1 hour before antigen challenge; read-out: Inhibition rate against PCA
- Description: An anti-dinitrophenylated-ovalbumin (hereinafter referred to as "anti-DNP-OVA") rat antiserum having 800 of PCA titer in homologous passive cutaneous anaphylaxis reaction in rats for 48 hours, was diluted 200 times with physiological saline, and diluted antiserum was injected intradermally into back of groups of 5 male Slc: Wistar rats weighing 130-150 g in a volume of 50 μl/site to be passively sensitized. […] Inhibition rate against PCA was calculated according to the following equation. […]
If the reported inhibition in vivo at 5 mg/kg equals or exceeds 10%, assign true. If not, assign false.

Take a look at these entries with their results.
Q. Has CC(C)c1cccc2n(CCCc3ccccc3)c(=O)c(-c3nn[nH]n3)c-2c1 a recorded inhibition in vivo at 5 mg/kg greater than or equal to 10%?
A. true

Q. // repeat for Cc1ccc2c([nH]c(=O)c3c(=O)cc(C(=O)OCCC(C)C)oc32)c1C [repirinast, reference compound] and report
A. true

Q. // repeat for N#Cc1c2cccccc-2nc1N=[N+]=[N-] and report
A. false

Q. // repeat for CCCCn1c2cccccc-2c(-c2nnn[nH]2)c1=O and report
A. false

Q. // repeat for CC(C)c1cccc2n(Cc3ccc(F)cc3)c(=O)c(-c3nnn[nH]3)c-2c1 and report
A. true

Q. // repeat for CC(C)c1cccc2c(-c3nnn[nH]3)c(=O)n(Cc3ccccc3)c-2c1 and report
A. true

Q. // repeat for O=c1c(-c2nnn[nH]2)c2cccccc-2n1Cc1ccccc1 and report
A. true

Q. // repeat for N#Cc1c2cccccc-2nc1NCC(=O)O and report
A. true

Others:
Q. Has CC(C)c1cccc2n(Cc3ccccc3)c(=O)c(-c3nnn[nH]3)c-2c1 a recorded inhibition in vivo at 5 mg/kg greater than or equal to 10%?
A. true

====

- ASSAY_COMMENT: Acute toxicity in mouse
- Type: in vivo
- DETAILS: mouse, in vivo; oral, 2 weeks observation
- Description: The test was carried out with the compounds obtained in Examples 5 and 9. Groups of 5 male ddy mice weighing 26 to 28 g were employed. The test compounds were suspended in a 0.5% CMC aqueous solution and the resulting suspension was administered orally in an amount of 500 for the compound obtained in Example 9, 1000 or 2000 mg/kg body weight. The survivors were kept under observation daily for 2 weeks. […]
Here the recorded LD50 at 336 h is given for each entry.

Q. Record request: LD50 at 336 h value, item CC(C)c1cccc2n(Cc3ccc(F)cc3)c(=O)c(-c3nnn[nH]3)c-2c1
A. > 2000 mg/kg

Q. // repeat for CC(C)c1cccc2c(-c3nnn[nH]3)c(=O)n(Cc3ccccc3)c-2c1 and report
A. > 2000 mg/kg

====

- TARGET_DESC: 5-lipoxygenase (Cavia porcellus)
- Construct: 5-lipoxygenase was prepared with polymorphonuclear leukocyte obtained from peritoneal cavity; endogenous in cells; host or cells: guinea pig peritoneal polymorphonuclear leukocytes (casein-elicited)
- Sequence (A0A286X958 1-674): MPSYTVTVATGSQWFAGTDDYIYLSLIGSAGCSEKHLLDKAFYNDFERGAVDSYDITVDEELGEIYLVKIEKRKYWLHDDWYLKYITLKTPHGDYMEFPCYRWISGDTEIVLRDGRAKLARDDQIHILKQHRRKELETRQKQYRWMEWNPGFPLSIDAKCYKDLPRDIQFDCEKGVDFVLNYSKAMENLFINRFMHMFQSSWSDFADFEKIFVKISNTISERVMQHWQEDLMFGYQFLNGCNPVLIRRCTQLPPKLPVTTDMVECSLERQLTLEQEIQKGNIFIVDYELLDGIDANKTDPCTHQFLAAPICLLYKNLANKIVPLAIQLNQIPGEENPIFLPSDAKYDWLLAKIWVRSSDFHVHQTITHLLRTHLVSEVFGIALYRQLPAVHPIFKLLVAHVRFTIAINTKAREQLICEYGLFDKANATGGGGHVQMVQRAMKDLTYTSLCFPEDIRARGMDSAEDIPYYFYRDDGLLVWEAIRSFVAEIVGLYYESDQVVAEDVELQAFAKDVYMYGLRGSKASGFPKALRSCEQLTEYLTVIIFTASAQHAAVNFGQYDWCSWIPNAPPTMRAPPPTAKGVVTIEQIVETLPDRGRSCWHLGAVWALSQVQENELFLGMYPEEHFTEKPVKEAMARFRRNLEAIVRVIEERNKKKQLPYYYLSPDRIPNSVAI
- ASSAY_COMMENT: 5-lipoxygenase inhibiting activity in guinea pig
- Type: biochemical
- DETAILS: read-out: Inhibition rate against 5-lipoxygenase activity
Here the recorded inhibition at 10 µM is given for each entry.
Response body: numeric value in %, unit text excluded.

Q. Record request: inhibition at 10 µM value, item CC(C)c1cccc2c(-c3nn[nH]n3)c(=O)n(CCCCc3ccccc3)c-2c1
A. -2.2

Q. // repeat for CC(C)c1cccc2c(-c3nnn[nH]3)c(=O)n(CCCCCc3ccccc3)c-2c1 and report
A. 60.6

Q. // repeat for CC(C)c1cccc2n(Cc3ccccn3)c(=O)c(-c3nnn[nH]3)c-2c1 and report
A. -9.4

Q. // repeat for O=C(O)c1ccc(Cn2c3cccccc-3c(-c3nn[nH]n3)c2=O)cc1 and report
A. 31.7

Others:
Q. Record request: inhibition at 10 µM value, item O=c1c(-c2nn[nH]n2)c2cccccc-2n1CCOc1ccccc1
A. -7.2

Q. // repeat for CCCc1c(OCCCn2c3cccccc-3c(-c3nn[nH]n3)c2=O)ccc(C(C)=O)c1O and report
A. -2.6

Q. // repeat for CC(C)c1cccc2n(Cc3ccccc3)c(=O)c(-c3nnn[nH]3)c-2c1 and report
A. -1.1

Q. // repeat for CC(C)(C)c1cc(C(=O)Cn2c3cccccc-3c(-c3nn[nH]n3)c2=O)cc(C(C)(C)C)c1O and report
A. -1.1

Q. // repeat for N#Cc1c2cccccc-2nc1NCC(=O)O and report
A. 5.2

Q. // repeat for CC(C)c1cccc2n(CCCc3ccccc3)c(=O)c(-c3nn[nH]n3)c-2c1 and report
A. 12.2

Q. // repeat for CC(C)c1cccc2n(CCCCCc3ccccc3)c(=O)c(-c3nnn[nH]3)c-2c1 and report
A. 27

Q. // repeat for CC(C)c1cccc2c(-c3nnn[nH]3)c(=O)n(Cc3ccccc3)c-2c1 and report
A. 1.5

Q. // repeat for O=c1c(-c2nn[nH]n2)c2cccccc-2n1Cc1ccc(C(F)(F)F)cc1 and report
A. 34.9

Q. // repeat for O=c1c(-c2nn[nH]n2)c2cccccc-2n1CSc1ccccc1 and report
A. 18.3

Q. // repeat for O=c1c(-c2nn[nH]n2)c2cccccc-2n1CCc1ccc(O)c(O)c1 and report
A. 41.8

Q. // repeat for CC(C)c1cccc2c(-c3nnn[nH]3)c(=O)n(Cc3ccc(F)cc3)c-2c1 and report
A. 41.8

Q. // repeat for O=c1c(-c2nnn[nH]2)c2cccccc-2n1Cc1ccccc1 and report
A. 63.2

Q. // repeat for CC(C)c1cccc2c(-c3nn[nH]n3)c(=O)n(CCCc3ccccc3)c-2c1 and report
A. 17.3

Q. // repeat for CC(C)c1cccc2n(Cc3ccc(F)cc3)c(=O)c(-c3nnn[nH]3)c-2c1 and report
A. -5.4
